- assayed_target: Rac GTPase-activating protein 1 (Homo sapiens)
- assay_details: blockers of MgcRacGAP-driven Rac1 GTP hydrolysis – biochemical, ADP Hunter fluorescence, primary and confirmatory, confirmation (AID 624330);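 also: fluorescence reports GDP produced by GAP-driven GTP hydrolysis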
- condition_context: MgcRacGAP-stimulated Rac1 GTP hydrolysis, at 30 µM, hits give high values, GST-tagged Rac1 F28L mutant substrate
The whole screen tested about 340,000 compounds, of which about 2,100 (0.62%) were called active. Not all results are given here. Potency and affinity values are given separately.
observable: inhibition (%)
Answers are plain numbers, in %.

Recorded inhibition, per entry:
response.value for CCC1CCCCN1Cc1ccc(OC)c(C)c1 (stereo not given) (field: inhibition) = 14.3

Form field inhibition, entry CCC1CCCCN1C(=S)NC(=O)c1ccc(F)c(S(=O)(=O)N2CCOCC2)c1 (stereo not given) : 0.38

# inhibition of "COc1cccc(/C=C/C(=O)OCC(=O)Nc2ccc3c(c2)OCO3)c1" = 13

The value of inhibition measured for the compound "COc1cc(/C=C/C(=O)OCC(=O)Nc2ccc3c(c2)OCCO3)ccc1OCC#N" turned out to be 5.37

Provide inhibition for all items below, preserving their order.
1. Cc1cc(C(=O)NC(C)C2CCCO2)cs1 (stereo not given)
2. Cc1cc(O)c(C(=O)Cc2csc(C)n2)c(O)c1
3. Cc1cnc(NC(=O)c2cccc(S(=O)(=O)N3CCOCC3)c2)s1

Result:
1. -7.59
2. 1.16
3. 1.86
